For each record, write down the corresponding IC50.
Target: Cathepsin S (UniProt P25774)
Test: Cathepsin enzyme inhibition assay (fluorogenic peptide substrate Z-Val-Val-Arg-AMC), Cathepsin S
Assay type: biochemical, human and mouse
Settings: enzyme 1 nM, substrate 20 μM, pH 6.5; read-out: CatS IC50
Numbers only, in nM.

Consider the reported IC50 for these compounds:
Cc1cc(N2C[C@H](S(=O)(=O)c3ccc(F)cc3Cl)C[C@H]2C(=O)NC2(C#N)CC2)n(C2CCC2)n1    0.54
C[C@H](Oc1ccc(S(=O)(=O)[C@@H]2C[C@@H](C(=O)NC3(C#N)CC3)N(C(=O)C(C)(C)C)C2)c(Cl)c1)C(F)(F)F    0.8
Cc1cc(N2C[C@H](S(=O)(=O)c3ccccc3C(F)(F)F)C[C@H]2C(=O)NC2(C#N)CC2)n(-c2ccc(Cl)cc2)n1    0.4

Value sought for every listed compound: IC50.
1. N#CC1(NC(=O)[C@@H]2C[C@@H](S(=O)(=O)CC3CC3)CN2C(=O)C2(C(F)(F)F)CC2)CC1
2. Cc1cccc(-n2nc(C)cc2N2C[C@H](S(=O)(=O)c3ccccc3C(F)(F)F)C[C@H]2C(=O)NC2(C#N)CC2)c1
3. N#CC1(NC(=O)[C@@H]2C[C@@H](S(=O)(=O)c3ccc(OCC(F)(F)F)cc3Cl)CN2C(=O)C2(c3ccccc3)CC2)CC1
4. Cc1cc(N2C[C@H](S(=O)(=O)c3ccccc3C(F)(F)F)C[C@H]2C(=O)NC2(C#N)CC2)n(C(C)(C)C)n1

1. 1470
2. 0.392
3. 0.09
4. 62.5
